Molecular target: T1, human IL-12 (human, UniProt P29459 23-219; P29460 23-328)
T1 construct: recombinant human IL-12 heterodimer (p35/p40, disulfide-linked); also called hIL-12; rhIL-12
T1 sequence (looked up) 1: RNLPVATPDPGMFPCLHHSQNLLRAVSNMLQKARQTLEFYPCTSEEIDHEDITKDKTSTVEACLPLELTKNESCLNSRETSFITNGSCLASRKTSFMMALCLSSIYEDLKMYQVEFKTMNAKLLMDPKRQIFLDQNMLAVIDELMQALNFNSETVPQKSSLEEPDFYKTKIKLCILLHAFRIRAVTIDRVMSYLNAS
T1 sequence (looked up) 2: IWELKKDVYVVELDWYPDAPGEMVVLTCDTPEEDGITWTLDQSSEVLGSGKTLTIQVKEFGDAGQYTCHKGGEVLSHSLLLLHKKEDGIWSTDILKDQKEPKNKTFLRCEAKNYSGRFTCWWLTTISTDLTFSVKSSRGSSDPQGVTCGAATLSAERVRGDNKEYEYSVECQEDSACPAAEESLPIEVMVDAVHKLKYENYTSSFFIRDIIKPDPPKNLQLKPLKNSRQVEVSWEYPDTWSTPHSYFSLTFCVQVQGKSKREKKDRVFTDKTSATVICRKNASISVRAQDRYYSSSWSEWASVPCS
Assay: SPR (BIAcore), IL-12 chip
Below, each entry is listed with its recorded koff.
measured_attribute: koff (s⁻¹)

binder="170-19 (scFv, V domains shown, scFv) VH: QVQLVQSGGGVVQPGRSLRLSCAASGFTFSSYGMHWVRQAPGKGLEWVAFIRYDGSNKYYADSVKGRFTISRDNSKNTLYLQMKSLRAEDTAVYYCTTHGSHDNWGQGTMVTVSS VL: SYVLTQPPSVSGTPGQRVTISCSGGRSNIGSNTVKWYQQLPGTAPKLLIYGNDQRPSGVPDRFSGSKSGTSASLAITGVQAEDEADYYCQSYDRGFTDYKVFGTGTKVTVL" unit_descriptor=s⁻¹ experimental_result=0.001
binder="A1 (scFv, V domains shown, scFv) VH: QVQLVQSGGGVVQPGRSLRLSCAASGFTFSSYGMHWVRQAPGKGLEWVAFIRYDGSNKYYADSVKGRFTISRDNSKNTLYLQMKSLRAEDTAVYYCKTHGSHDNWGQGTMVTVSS VL: SYVLTQPPSVSGTPGQRVTISCSGGRSNIGSNTVKWYQQLPGTAPKLLIYGNDQRPSGVPDRFSGSKSGTSASLAITGVQAEDEADYYCQSYDRGLPRLTHFGTGTKVTVL" unit_descriptor=s⁻¹ experimental_result=0.00566
binder="156-17 (scFv, V domains shown, scFv) VH: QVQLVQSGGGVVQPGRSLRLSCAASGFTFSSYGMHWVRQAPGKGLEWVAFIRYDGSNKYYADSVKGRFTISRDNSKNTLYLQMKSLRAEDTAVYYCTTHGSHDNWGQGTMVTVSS VL: SYVLTQPPSVSGTPGQRVTISCSGGRSNIGSNTVKWYQQLPGTAPKLLIYGNDQRPSGVPDRFSGSKSGTSASLAITGVQAEDEADYYCQSYDSSLWGTRVFGTGTKVTVL" unit_descriptor=s⁻¹ experimental_result=0.006
